molecular target: T1, Human Serum Albumin (human, UniProt P02768 25-609); experiment: SPR Biacore T200, HSA on CM5 chip, ADAPT injected, 1:1 fit
T1 construct: also called HSA
T1 sequence (P02768 25-609 limits assumed): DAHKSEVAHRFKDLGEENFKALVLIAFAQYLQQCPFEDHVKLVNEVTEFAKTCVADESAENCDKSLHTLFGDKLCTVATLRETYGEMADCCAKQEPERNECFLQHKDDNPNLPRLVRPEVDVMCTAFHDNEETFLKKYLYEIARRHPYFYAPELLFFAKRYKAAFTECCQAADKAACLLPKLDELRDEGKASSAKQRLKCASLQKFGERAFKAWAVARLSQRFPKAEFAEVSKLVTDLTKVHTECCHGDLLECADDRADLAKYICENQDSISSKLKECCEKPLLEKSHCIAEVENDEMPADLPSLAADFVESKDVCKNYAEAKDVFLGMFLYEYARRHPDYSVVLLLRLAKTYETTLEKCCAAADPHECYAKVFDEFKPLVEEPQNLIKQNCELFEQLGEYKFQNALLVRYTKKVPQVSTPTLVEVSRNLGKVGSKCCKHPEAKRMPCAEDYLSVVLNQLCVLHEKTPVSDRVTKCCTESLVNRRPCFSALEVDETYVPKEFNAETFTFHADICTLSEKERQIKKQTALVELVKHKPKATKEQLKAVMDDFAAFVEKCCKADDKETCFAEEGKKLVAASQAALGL
Assay metric: Kd (nM)
Provide the reading as a plain figure in nM.

Study these solved cases before continuing.
>>> print(df.to_string())
                                     binder  unit_spec  measured_result
0  LHEAKDWADYELWSYGVSDFYRALIWKAKTVEGVEALKLHILAALP (designed binder) [ADAPT variant ANG_13]         nM              2.8
1  LFRAKVWAVWELDQYGVSDFYDELIWKAKTVEGVEALKLHILAALP (designed binder) [ADAPT variant PSA_05]         nM              3.3
2  LVIAKAYAQYELAFYGVSDFYSDLIKKAKTVEGVEALKLHILAALP (designed binder, also called INS_01) [ADAPT variant Insulin_01]         nM              3.9

Then there is this binder:
Ask: For the binder LMWAKAEAAIELVDYGVSDFYQYLISKAKTVEGVEALKLHILAALP (designed binder) [ADAPT variant REN_40] , give its reported Kd.
Reply: 5.5
